Origin of values: ChEMBL document CHEMBL3885861

Assign AST to each entry below.
Organism: Rattus norvegicus
Experiment: Open TG-GATES - Regimen: Single
Format: toxicity, organism-based, Sprague-Dawley
Set-up: regimen Single, gender Male, age 6 weeks
Settings: in vivo, po, 0 mg/kg, 24 h, tissue Plasma, route gavage, dose level Control
Value and unit, in that order.

Worked examples follow.
>>> df
                                compound  measured_metric  value_observed
0       CN(C)CCCN1c2ccccc2Sc2ccc(Cl)cc21              AST       73.8 IU/L
1  CC(S)C(=O)NCC(=O)O (stereo not drawn)              AST       74.2 IU/L

Then this compound:
Notebook: `O=C(O)c1ccccc1Nc1ccccc1` , AST read as 73.8 IU/L

----------
Organism: Rattus norvegicus
Experiment: Open TG-GATES - Regimen: Daily Repeat
Format: toxicity, organism-based, Sprague-Dawley
Parameters: regimen Daily Repeat, gender Male, age 6 weeks
Conditions: in vivo, po, 100 mg/kg, […], tissue Plasma, route gavage, dose level Low, time 7 day
Assign TP to each entry below.
Give bare numbers, in g/dL.

>>> print(df.to_string())
                                   compound  measured_metric  value_observed
0  CCCCNC(=O)NS(=O)(=O)c1ccc(C)cc1 [TOLBUTAMIDE]               TP             5.5

Lab note: each compound below needs its TP filled in.
1. O=C(O)c1ccccc1Nc1ccccc1
2. CC(S)C(=O)NCC(=O)O (centres undefined)
3. CC(=O)[C@@]1(O)CC[C@H]2[C@@H]3C=C(Cl)C4=CC(=O)CC[C@]4(C)[C@H]3CC[C@@]21C

[5.8, 5.6, 5.7]

----------
Assign ALT to each entry below.
Organism: Rattus norvegicus
Experiment: Open TG-GATES - Regimen: Daily Repeat
Format: toxicity, organism-based, Sprague-Dawley
Set-up: regimen Daily Repeat, gender Male, age 6 weeks
Settings: in vivo, po, 300 mg/kg, […], tissue Plasma, route gavage, dose level Middle, time 7 day
One number for each entry, in IU/L.

Worked examples follow.
>>> print(df.to_string())
                                   compound  value_observed
0  CC(=O)[C@@]1(O)CC[C@H]2[C@@H]3C=C(Cl)C4=CC(=O)CC[C@]4(C)[C@H]3CC[C@@]21C [CHLORMADINONE]              53
1  CC(S)C(=O)NCC(=O)O (centres undefined) [TIOPRONIN]              36
2    O=C(O)c1ccccc1Nc1ccccc1 [FENAMIC ACID]            36.6

Then this compound:
Notebook: CCCCNC(=O)NS(=O)(=O)c1ccc(C)cc1 [TOLBUTAMIDE] , ALT read as 42

----------
Species: Rattus norvegicus
Assay: Open TG-GATES - Regimen: Daily Repeat
Assay type: toxicity, organism-based, Sprague-Dawley
Parameters: regimen Daily Repeat, gender Male, age 6 weeks
Conditions: in vivo, po, 100 mg/kg, […], tissue Plasma, route gavage, dose level Low, time 14 day
measured-metric: TG (mg/dL)
Numbers only, in mg/dL.

Worked examples follow.
>>> print(df.to_string())
                                   compound  quantity_unit  value_observed
0    CC(S)C(=O)NCC(=O)O (centres undefined)          mg/dL             121
1  CC(=O)[C@@]1(O)CC[C@H]2[C@@H]3C=C(Cl)C4=CC(=O)CC[C@]4(C)[C@H]3CC[C@@]21C          mg/dL           142.2
2                   O=C(O)c1ccccc1Nc1ccccc1          mg/dL           109.2

Notebook: CCCCNC(=O)NS(=O)(=O)c1ccc(C)cc1 [TOLBUTAMIDE] , TG read as 141.6

----------
Species: Rattus norvegicus
Assay: Open TG-GATES - Regimen: Daily Repeat
Type: toxicity, organism-based, Sprague-Dawley
Design: regimen Daily Repeat, gender Male, age 6 weeks
Conditions: in vivo, po, 100 mg/kg, […], tissue Plasma, route gavage, dose level Low, time 7 day
Assign Na to each entry below.
Answers are plain numbers, in meq/L.

Worked examples follow.
                                   molecule  value_observed
0    CC(S)C(=O)NCC(=O)O (centres undefined)           141.8
1  CC(=O)[C@@]1(O)CC[C@H]2[C@@H]3C=C(Cl)C4=CC(=O)CC[C@]4(C)[C@H]3CC[C@@]21C           140.6
2                   O=C(O)c1ccccc1Nc1ccccc1           142.8

Then this molecule:
Notebook: CCCCNC(=O)NS(=O)(=O)c1ccc(C)cc1 [TOLBUTAMIDE] , Na read as 141.8

----------
Species on record: Rattus norvegicus
Experiment: Open TG-GATES - Regimen: Daily Repeat
Type: toxicity, organism-based, Sprague-Dawley
Parameters: regimen Daily Repeat, gender Male, age 6 weeks
Settings: in vivo, po, 300 mg/kg, […], tissue Plasma, route gavage, dose level Middle, time 7 day
measured-metric: GLC (mg/dL)
Answers are plain numbers, in mg/dL.

>>> print(df.to_string())
                                   compound  measured_metric  value_observed
0  CC(=O)[C@@]1(O)CC[C@H]2[C@@H]3C=C(Cl)C4=CC(=O)CC[C@]4(C)[C@H]3CC[C@@]21C              GLC           194.6
1  CCCCNC(=O)NS(=O)(=O)c1ccc(C)cc1 [TOLBUTAMIDE]              GLC           204.8
2    CC(S)C(=O)NCC(=O)O (centres undefined)              GLC           186.4

Then this compound:
Notebook: `O=C(O)c1ccccc1Nc1ccccc1` , GLC read as 185

----------
Species: Rattus norvegicus
Test: Open TG-GATES - Regimen: Daily Repeat
Assay type: toxicity, organism-based, Sprague-Dawley
Set-up: regimen Daily Repeat, gender Male, age 6 weeks
Details: in vivo, po, 0 mg/kg, […], tissue Plasma, route gavage, dose level Control, time 14 day
measured-metric: BUN (mg/dL)
Answers are plain numbers, in mg/dL.

Worked examples follow.
>>> print(df.to_string())
                                   compound  measured_metric  value_observed
0  CC(S)C(=O)NCC(=O)O (stereo not drawn) [TIOPRONIN]              BUN              19
1  CN(CCOc1ccc(CC2SC(=O)NC2=O)cc1)c1ccccn1.O=C(O)/C=C\C(=O)O (stereo not drawn) [ROSIGLITAZONE MALEATE]              BUN              19
2                CCN(CC)C(=S)SSC(=S)N(CC)CC              BUN            20.8

Lab note: each compound below needs its BUN filled in.
1. CCCCNC(=O)NS(=O)(=O)c1ccc(C)cc1 [TOLBUTAMIDE]
2. COc1ccc([C@@H]2Sc3ccccc3N(CCN(C)C)C(=O)[C@@H]2OC(C)=O)cc1 [DILTIAZEM]
3. CN(C/C=C/C#CC(C)(C)C)Cc1cccc2ccccc12 [TERBINAFINE]

1: 16.6; 2: 16; 3: 16

----------
Species: Rattus norvegicus
Experiment: Open TG-GATES - Regimen: Daily Repeat
Format: toxicity, organism-based, Sprague-Dawley
Set-up: regimen Daily Repeat, gender Male, age 6 weeks
Conditions: in vivo, po, 300 mg/kg, […], tissue Plasma, route gavage, dose level Middle, time 14 day
measured-metric: GLC
Value and unit, in that order.

Worked examples follow.
>>> df
                                   compound  value_observed
0  CCCCNC(=O)NS(=O)(=O)c1ccc(C)cc1 [TOLBUTAMIDE]     193.4 mg/dL
1                   O=C(O)c1ccccc1Nc1ccccc1       178 mg/dL
2  CC(=O)[C@@]1(O)CC[C@H]2[C@@H]3C=C(Cl)C4=CC(=O)CC[C@]4(C)[C@H]3CC[C@@]21C     196.2 mg/dL

Then this compound:
Notebook: CC(S)C(=O)NCC(=O)O (centres undefined) , GLC read as 194.6 mg/dL

----------
Species: Rattus norvegicus
Test: Open TG-GATES - Regimen: Single
Format: toxicity, organism-based, Sprague-Dawley
Set-up: regimen Single, gender Male, age 6 weeks
Conditions: in vivo, po, 0 mg/kg, 9 h, tissue Kidney, route gavage, dose level Control
measured-metric: KIDNEY_TOTAL (g)
One number for each entry, in g.

Worked examples follow.
                                   compound  measured_metric  value_observed
0                                       CCO     KIDNEY_TOTAL             1.9
1                   O=C(O)c1ccccc1Nc1ccccc1     KIDNEY_TOTAL             1.8
2  COc1ccc([C@@H]2Sc3ccccc3N(CCN(C)C)C(=O)[C@@H]2OC(C)=O)cc1     KIDNEY_TOTAL             1.7
3  CN(CCOc1ccc(CC2SC(=O)NC2=O)cc1)c1ccccn1.O=C(O)/C=C\C(=O)O (stereo not drawn) [ROSIGLITAZONE MALEATE]     KIDNEY_TOTAL             0.7
4                          O=c1ccc2ccccc2o1     KIDNEY_TOTAL             1.7

Lab note: each compound below needs its KIDNEY_TOTAL filled in.
1. CN(C)CCCN1c2ccccc2Sc2ccc(Cl)cc21
2. COc1cc2ncnc(Nc3ccc(F)c(Cl)c3)c2cc1OCCCN1CCOCC1
3. Nc1ccc(Cc2ccc(N)cc2)cc1
4. CC(S)C(=O)NCC(=O)O (stereo not drawn)
5. CN(C/C=C/C#CC(C)(C)C)Cc1cccc2ccccc12

2
1.9
1.7
1.9
2

Lab note: each compound below needs its KIDNEY_TOTAL filled in.
1. C=C[C@H]1C[N@@]2CC[C@H]1C[C@@H]2[C@@H](O)c1ccnc2ccc(OC)cc12
2. CCCCNC(=O)NS(=O)(=O)c1ccc(C)cc1 [TOLBUTAMIDE]
3. CC(=O)[C@@]1(O)CC[C@H]2[C@@H]3C=C(Cl)C4=CC(=O)CC[C@]4(C)[C@H]3CC[C@@]21C

1: 1.9; 2: 1.9; 3: 2
